Structures can show the parent of a compound that is named as a salt.
For WDR5 protein (22-334aa) with MLL1 polypeptide (3672-3773aa) (Homo sapiens, UniProt P61964), measured IC50 is reported for the entries below.

Dear colleague, I am looking for the recorded IC50 of the following compound: CCOc1cc([C@H](C)N2CC3(CCC3)c3c(CN4CCC(N(C)C)CC4)cc(Cn4ccnc4NC)cc3C2=O)ncc1C#N [Compound 74]
< 20 nM

Further, for [2H]C(C)(c1cc(OCC)c(C#N)cn1)N1CC2(CCC2)c2c(CN(C)C)cc(Cn3ccnc3NC)cc2C1=O (centres unmarked) [Compound 101] ?
< 20 nM

Further, for CCOc1cc([C@H](C)N2CC3(CC(F)(F)C3)c3c(CN(C)C)cc(Cn4ccnc4NC)cc3C2=O)ncc1F [Compound 98] ?
< 20 nM

Further, for CCOc1cc([C@H](C)N2C[C@@]3(CC3(F)F)c3c(CN(C)C)cc(Cn4ccnc4NC)cc3C2=O)ncc1F (stereo in doubt) [Compound 97] ?
< 20 nM

Further, for CCOc1cc([C@H](C)N2CC3(CCC3)c3c(CN(C)C)cc(Cn4ccnc4NC)cc3C2=O)ncc1C#N [Compound 23] ?
< 20 nM

Further, for CNc1nccn1Cc1cc(CN(C)C)c2c(c1)C(=O)N([C@@H](C)c1cc(OC3CC3)c(F)cn1)CC21CC1 [Compound 14] ?
< 20 nM

Further, for CCOc1cc([C@@H](C)N2C[C@@]3(CC3(F)F)c3c(CN4CCN(C)CC4)cc(Cn4ccnc4NC)cc3C2=O)ncc1F (stereo in doubt) [Compound 93, formate salt] ?
< 20 nM

Further, for CCOc1cc([C@H](C)N2CC3(CC3)c3c(CN4CCN(CC)CC4)cc(Cn4ccnc4NC)cc3C2=O)ncc1F [Compound 57] ?
< 20 nM

Further, for CNc1nccn1Cc1cc(CN(C)C)c2c(c1)C(=O)N(C(C)c1ccc(F)c(OC)c1)CC21CCC1 (centres unmarked) [Compound 107] ?
< 20 nM

Further, for CCOc1cc([C@H](C)N2CC3(CC3)c3c(CN4CC(F)(F)C4)cc(Cn4ccnc4NC)cc3C2=O)ncc1C#N [Compound 67] ?
< 20 nM

###

For WDR5 protein (22-334aa) with MLL1 polypeptide (3672-3773aa) (Homo sapiens), measured IC50 is reported for the entries below.

INSERT INTO measurements (compound, endpoint, observed_measurement) VALUES
  ('CCOc1cc([C@H](C)N2CC3(CC3)c3c(CN4CCN(CC(F)(F)F)CC4)cc(Cn4ccnc4NC)cc3C2=O)ncc1F [Compound 62]', 'IC50', '< 20 nM'),
  ('CCOc1cc([C@H](C)N2CC3(CCC3)c3c(CN(C)C)cc(Cn4ccnc4NC)cc3C2=O)ncc1F [Compound 18]', 'IC50', '< 20 nM'),
  ('CCOc1cc(C(C)N2CC3(CCC3)c3c(CN(C)C)cc(Cn4ccc5ncccc54)cc3C2=O)ncc1C#N (stereo not shown) [Compound 108]', 'IC50', '20 to 100 nM');

// next entry
Fill in the recorded IC50 for this compound, with WDR5 protein (22-334aa) with MLL1 polypeptide (3672-3773aa) (Homo sapiens) as test system: CNc1nccn1Cc1cc(CN(C)C)c2c(c1)C(=O)N([C@@H](C)c1cnc(F)c(OC)c1)CC21CC1 [Compound 4]
< 20 nM
